# TARGET ENTITY: NNMT (Homo sapiens, UniProt P40261)
# Sequence (P40261 whole entry, species assumed): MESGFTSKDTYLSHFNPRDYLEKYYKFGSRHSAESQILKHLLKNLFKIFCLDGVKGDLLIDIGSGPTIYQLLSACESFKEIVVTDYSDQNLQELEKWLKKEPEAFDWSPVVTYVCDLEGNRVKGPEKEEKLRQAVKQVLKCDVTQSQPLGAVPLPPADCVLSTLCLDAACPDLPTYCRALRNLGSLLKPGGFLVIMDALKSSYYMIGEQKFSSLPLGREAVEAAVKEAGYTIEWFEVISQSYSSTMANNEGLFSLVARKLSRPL
# PROTOCOL DESCRIPTION: NNMT assay (HILIC-MS/MS, formation of MNA)
# CONDITION INFO: IC50 values (μM), Table 3, 1-carbon alkyl linkers; NA 200 μM, SAM 8.5 μM; maximum concentration tested 25 μM
READOUT: IC50 (µM)
Write the number in µM without appending the unit.

Nc1ncnc2c1ncn2[C@@H]1O[C@H](CN(CC[C@H](N)C(=O)O)Cc2cccc(C(F)(F)F)c2)[C@@H](O)[C@H]1O [GYZ-416] | 6.58
Nc1ncnc2c1ncn2[C@@H]1O[C@H](CN(CC[C@H](N)C(=O)O)Cc2ccc([N+](=O)[O-])cc2)[C@@H](O)[C@H]1O [GYZ-420] | 6.61

--- query ---
# input Given the molecule Nc1ncnc2c1ncn2[C@@H]1O[C@H](CN(CC[C@H](N)C(=O)O)Cc2cccc(F)c2)[C@@H](O)[C@H]1O [GYZ-422] , what is its reported IC50?
# output 1.24
